# Tested on: IGROV1 ovarian
# experiment: NCI tumour cell line growth inhibition, 48 h
property-measured: TGI

Tell me the measured TGI of O=C(/C=C/c1c(O)ccc2ccccc12)c1ccccc1Cl , please.
> 100 µM

Tell me the measured TGI of COc1ccc(-c2nc3ccccc3c(=O)[nH]2)c(OC)c1 , please.
> 100 µM

Tell me the measured TGI of COc1ccc2nc3cccc([N+](=O)[O-])c3c(NCCN(C)C)c2c1 , please.
0.39 µM

Tell me the measured TGI of Cc1cc(C(=O)NC(C)(C)C)cc(C#Cc2ccc3c4c(oc3c2)C(C)(C)c2cc(NS(C)(=O)=O)ccc2C4=O)n1 , please.
> 100 µM

Tell me the measured TGI of CCOC(=O)C1C(=O)CC(O)(c2ccccc2)C(C(=O)OCC)C1c1ccc(N(C)C)cc1 (stereo unspecified) , please.
> 100 µM

Tell me the measured TGI of N#Cc1c2nc3ccccc3nc2n2ccccc12 , please.
> 100 µM

Tell me the measured TGI of Cc1cn(C2CC(n3cncn3)C(C(C)O)O2)c(=O)[nH]c1=O (stereo unspecified) , please.
> 100 µM

Tell me the measured TGI of CCN(CC)CCNC(=O)c1cn2ncnc(Oc3ccc(NC(=O)Nc4ccc(Cl)c(C(F)(F)F)c4)cc3)c2c1C , please.
3.24 µM

Tell me the measured TGI of CN(C)C=Nc1ccc2nonc2c1 , please.
> 100 µM

Tell me the measured TGI of CC#CC(OCC)(OCC)OCC , please.
> 100 µM

Tell me the measured TGI of CC(C)CCC[C@@H](C)[C@H]1CCC2C3=CCn4c(=O)ccc(=O)n4C3CC[C@@]21C (stereo partly specified) , please.
2.5 µM

* * *

# System: SNB-75 CNS
# experiment: NCI tumour cell line growth inhibition, 48 h
Task for the reader: assign each of the following compounds its reported TGI.
Your answer is read as µM, so omit the unit and give the number.

Tell me the measured TGI of CCCCCc1cc2cc3c(c(O)c2c(=O)[nH]1)C1(CC3)C(O)=c2c(=O)c3c(=O)cc(OC)c(=O)c=3c(=O)c2=C1O (stereo not given) , please.
4.68

Tell me the measured TGI of COc1ccc2nc(C)cc(NCCCCCCCCCNc3cc(C)nc4ccc(OC)cc34)c2c1 , please.
12.5

* * *

# System: BT-549 breast
# experiment: NCI tumour cell line growth inhibition, 48 h
Task for the reader: assign each of the following compounds its reported GI50.

Tell me the measured GI50 of CSCCC(NC(=O)CNC(=O)C(CC(=O)O)NC(=O)C(NC(=O)C(NC(=O)C(NC(=O)CNC(=O)C(CCC(N)=O)NC(=O)C(CCSC)NC(=O)C(CC(=O)O)NC(=O)C(C)NC(=O)C(C)NC(=O)C(NC(=O)C(CO)NC(=O)C(N)CC(C)C)C(C)O)C(C)C)C(C)C)C(C)O)C(=O)NC(C)C(=O)NC(CO)C(=O)NCC(=O)NC(CC(C)C)C(=O)NC(CC(=O)O)C(=O)NC(CCCCN)C(=O)NC(CC(=O)O)C(=O)NC(Cc1ccc(O)cc1)C(=O)NC(CC(C)C)C(=O)NC(CCCCN)C(=O)N1CCCC1C(=O)NC(CC(=O)O)C(=O)NC(CC(=O)O)C(=O)O (configuration not stated) , please.
> 82500 nM

Tell me the measured GI50 of Cc1cc(C(=O)NC(C)(C)C)cc(C#Cc2ccc3c4c(oc3c2)C(C)(C)c2cc(NS(C)(=O)=O)ccc2C4=O)n1 , please.
1260 nM

* * *

# Test system: NCI-H226 lung
# experiment: NCI tumour cell line growth inhibition, 48 h
property-measured: TGI (µM)
Your answer is read as µM, so omit the unit and give the number.

Tell me the measured TGI of Cc1cnc(Cl)nc1C(C#N)c1nc2ccccc2s1 (stereo not given) , please.
84.5

Tell me the measured TGI of O=C1Cc2c([nH]c3ccc([N+](=O)[O-])cc23)-c2ccccc2N1 , please.
18.2

Tell me the measured TGI of CCN(CC)CCNc1ccc2ncn3c4ccccc4c(=O)c1c23 , please.
7.67

Tell me the measured TGI of C/C=C(\C)C(=O)O[C@H]1C=CC(=O)O[C@H]1CC[C@H](O)[C@H](C)O , please.
16.6

Tell me the measured TGI of CCc1c2c(nc3ccc(OC(=O)NCc4ccc(B5OC(C)(C)C(C)(C)O5)cc4)cc13)-c1cc3c(c(=O)n1C2)COC(=O)[C@]3(O)CC , please.
0.635

Tell me the measured TGI of Cc1ccc(S(=O)(=O)NC2=NCCN2C(=S)SN2CCn3c2nsc3=S)cc1 , please.
50.6

* * *

# Tested on: MOLT-4 leukemia
# experiment: NCI tumour cell line growth inhibition, 48 h; in the data active means GI50 below about 0.43 µM; inactive means the rest
Please answer using one outcome listed in yes (active), no (inactive)

Recorded call for CC(=O)CC(=O)Nc1c(C)[c]([Hg][O]C(C)=O)c(C)[c]([Hg][O]C(C)=O)[c]1[Hg][O]C(C)=O ?
no

Recorded call for Cc1ccc(S(=O)(=O)NC2=NCCN2C(=S)SN2CCn3c2nsc3=S)cc1 ?
no

Recorded call for O=C1OC(c2cccc(C(F)(F)F)c2)c2ccc3ccccc3c21 (stereo unspecified) ?
no

Recorded call for CCc1c2c(nc3ccc(OC(=O)NCc4ccc(B5OC(C)(C)C(C)(C)O5)cc4)cc13)-c1cc3c(c(=O)n1C2)COC(=O)[C@]3(O)CC ?
yes

Recorded call for CCCN1C(=O)/C(=C/c2cccc(O)c2)SC1=Nc1ccc(OC)cc1 ?
no

Recorded call for CSCCC(NC(=O)CNC(=O)C(CC(=O)O)NC(=O)C(NC(=O)C(NC(=O)C(NC(=O)CNC(=O)C(CCC(N)=O)NC(=O)C(CCSC)NC(=O)C(CC(=O)O)NC(=O)C(C)NC(=O)C(C)NC(=O)C(NC(=O)C(CO)NC(=O)C(N)CC(C)C)C(C)O)C(C)C)C(C)C)C(C)O)C(=O)NC(C)C(=O)NC(CO)C(=O)NCC(=O)NC(CC(C)C)C(=O)NC(CC(=O)O)C(=O)NC(CCCCN)C(=O)NC(CC(=O)O)C(=O)NC(Cc1ccc(O)cc1)C(=O)NC(CC(C)C)C(=O)NC(CCCCN)C(=O)N1CCCC1C(=O)NC(CC(=O)O)C(=O)NC(CC(=O)O)C(=O)O (stereo unspecified) ?
no

* * *

# Test system: CAKI-1 renal
# experiment: NCI tumour cell line growth inhibition, 48 h; in the data active means GI50 below about 0.43 µM; inactive means the rest
Please answer using one outcome listed in True (active), False (inactive)

Recorded call for O=C(O[C@H]1CN[C@H](C#Cc2cc3ncnc(Nc4ccc5c(cnn5Cc5ccccc5)c4)c3s2)C1)N1CCOCC1 ?
False

Recorded call for CS(=O)(=O)Nc1ccc(Nc2c3ccccc3nc3cc(N)ccc23)cc1 ?
True

Recorded call for CCOc1ccc2nc(S/C(=C/C=C(C#N)C#N)c3ccc(Cl)cc3)sc2c1 ?
False

Recorded call for CCc1c2c(nc3ccc(OC(=O)NCc4ccc(B5OC(C)(C)C(C)(C)O5)cc4)cc13)-c1cc3c(c(=O)n1C2)COC(=O)[C@]3(O)CC ?
True

Recorded call for Cc1ccc(S(=O)(=O)NC2=NCCN2C(=S)SN2CCn3c2nsc3=S)cc1 ?
False

Recorded call for O=C1/C(=C/c2ccc(O)c(O)c2)COc2ccc(-c3ccccc3)cc21 ?
False

Recorded call for Cc1ccc(-c2cc3c(NC(=O)C4CC4)ncnc3o2)cc1 ?
False

Recorded call for Cc1cc(C(=O)NC(C)(C)C)cc(C#Cc2ccc3c4c(oc3c2)C(C)(C)c2cc(NS(C)(=O)=O)ccc2C4=O)n1 ?
False

Recorded call for Clc1ccc(N2CCN(CCCN3CCN(c4cccc(Cl)c4)CC3)CC2)cc1 ?
False

Recorded call for NCCCCCCn1c2c(c3ccccc3c1=O)C(=O)c1ccccc1-2 ?
False

* * *

# Tested on: BT-549 breast
# experiment: NCI tumour cell line growth inhibition, 48 h
property-measured: TGI (µM)
Your answer is read as µM, so omit the unit and give the number.

Tell me the measured TGI of COCCCN(Cc1cc(OC)c(OC)c(OC)c1)C(=S)Nc1cccc(Cl)c1 , please.
64.9

Tell me the measured TGI of CCOC(=O)c1ccc2[nH]c(O)c(C(=Nc3ccc(N(C)C(=O)CN4CCN(C)CC4)cc3)c3ccccc3)c2c1 , please.
2.32

Tell me the measured TGI of C=C1C[C@@H](O)[C@@H](Br)C(C)(C)[C@@]12C=CC(O)(CBr)CC2 (stereo not given in full) , please.
83.7

Tell me the measured TGI of CN1C(=O)/C(=C/c2c(Cl)[nH]c3ccccc23)c2ccccc21 , please.
94.3

Tell me the measured TGI of N#Cc1c(N)nc(NCc2ccccc2)c(C#N)c1-c1ccc(Cl)cc1 , please.
60.4

* * *

Task for the reader: assign each of the following compounds its reported TGI.
# Tested on: HCT-116 colon
# experiment: NCI tumour cell line growth inhibition, 48 h
Your answer is read as µM, so omit the unit and give the number.

Report TGI for Oc1ccccc1N=Cc1c(O)ccc2ccccc12 tested on HCT-116 colon.
46

Report TGI for COc1ccc2c(c1)CN1C(=N2)CSC1c1c(Cl)cccc1[N+](=O)[O-] (stereo unspecified) tested on HCT-116 colon.
29.5

Report TGI for Brc1ccc2[nH]cc([C@H]3CN[C@@H](c4c[nH]c5ccc(Br)cc45)CN3)c2c1 tested on HCT-116 colon.
4.68
